# method_summary: qHTS assay to test for compound auto fluorescence at 460 nm (blue) in HepG2 cells (AID 720687); note: % is set by controls: 0 for no effect and ±100 for the full control effect
# study_conditions: autofluorescence 405/460 nm, 1 h; series mostly up to 91.3 µM
Activity calls are given as the source filed them. Calls come from the whole dose curve; as a rule, active = well fitted curve in the direction sought with a large enough effect in the repeat runs; inconclusive = weak or mixed curves; inactive = flat fitted curve, though single readings scatter.
readout: fluorescence, % of fluorescent control

Sample records with fluorescence, % of fluorescent control:
[[record]]
compound = "CCC1CO1 (stereo not drawn)"
readout = "fluorescence, % of fluorescent control"
result = "inactive"

[[record]]
compound = "O=C(CCCN1CC=C(n2c(=O)[nH]c3ccccc32)CC1)c1ccc(F)cc1"
readout = "fluorescence, % of fluorescent control"
result = "inactive"

[[record]]
compound = "O=C(OCC(O)CO)c1ccccc1Nc1ccnc2cc(Cl)ccc12 (stereo not drawn)"
readout = "fluorescence, % of fluorescent control"
result = "0.322% [at 18.6 µM] (inactive)"

[[record]]
compound = "CN(C)CCN1C(=O)c2ccccc2N(C)c2ccccc21"
readout = "fluorescence, % of fluorescent control"
result = "inactive"

[[record]]
compound = "OC(CCN1CCCC1)(c1ccccc1)C1CCCCC1 (stereo not drawn)"
readout = "fluorescence, % of fluorescent control"
result = "0.0411% [at 18.6 µM] (inactive)"


Inquiry: fluorescence, % of fluorescent control for CC(CO)CO ?
Reply text: inactive

Inquiry: For CCCCCCC(C)(C)C(=O)O , what is its reported fluorescence, % of fluorescent control?
Reply text: inactive

Inquiry: What does the record list as fluorescence, % of fluorescent control for CCC(C)COC(C)=O (stereo not drawn) ?
Reply text: inactive
